Biological target: 5-hydroxytryptamine receptor 2B (Homo sapiens, UniProt P41595)
Sequence (P41595 whole entry): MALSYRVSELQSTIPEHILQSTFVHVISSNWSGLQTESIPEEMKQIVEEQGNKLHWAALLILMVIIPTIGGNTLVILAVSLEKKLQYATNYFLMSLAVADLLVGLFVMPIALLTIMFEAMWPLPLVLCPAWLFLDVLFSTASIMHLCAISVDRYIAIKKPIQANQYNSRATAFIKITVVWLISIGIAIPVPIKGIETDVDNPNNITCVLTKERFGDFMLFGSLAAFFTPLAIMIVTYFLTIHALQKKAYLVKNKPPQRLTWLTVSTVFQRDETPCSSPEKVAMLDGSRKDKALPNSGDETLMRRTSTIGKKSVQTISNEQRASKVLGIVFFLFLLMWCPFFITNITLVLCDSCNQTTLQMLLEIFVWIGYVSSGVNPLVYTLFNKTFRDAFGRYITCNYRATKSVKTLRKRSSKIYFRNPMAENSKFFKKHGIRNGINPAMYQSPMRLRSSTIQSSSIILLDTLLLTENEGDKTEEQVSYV
Conditions: HEK293, at 10 µM
Examples of compounds with documented inhibition follow.

Study these solved cases before continuing.
input_smiles=CCCOC(=O)[C@@]12C[C@@H]1[C@@H](n1cnc3c(NC(C4CC4)C4CC4)nc(Cl)nc31)[C@H](O)[C@@H]2O measured_metric=inhibition experimental_value="> 50%"
input_smiles=CNC(=O)[C@@]12C[C@@H]1[C@@H](n1cnc3c(N(C)C)nc(Cl)nc31)[C@H](O)[C@@H]2O measured_metric=inhibition experimental_value="> 50%"
input_smiles=CNC(=O)[C@H]1O[C@@H](n2cnc3c(NCc4cccc(I)c4)ncnc32)[C@H](O)[C@@H]1O measured_metric=inhibition experimental_value="> 50%"

Asked: Query the reported inhibition for 5-hydroxytryptamine receptor 2B (Homo sapiens, UniProt P41595); item: `Nc1ncnc2c1ncn2[C@@H]1O[C@H](C(=O)NC2CC2)[C@@H](O)[C@H]1O`
Given back: < 10%

Asked: Query the reported inhibition for 5-hydroxytryptamine receptor 2B (Homo sapiens, UniProt P41595); item: `Nc1nc(Cl)nc2c1ncn2[C@@H]1O[C@H](CO)[C@@H](O)[C@H]1O`
Given back: < 10%

Asked: Query the reported inhibition for 5-hydroxytryptamine receptor 2B (Homo sapiens, UniProt P41595); item: `CC(=O)NCCCNC(=O)[C@@]12C[C@@H]1[C@@H](n1cnc3c(NC(C4CC4)C4CC4)nc(Cl)nc31)[C@H](O)[C@@H]2O`
Given back: > 50%

###

Test: Stability of compound in pH 1.6 fasted state simulated gastric fluid assessed as compound remaining measured after 2 hrs
Assay type: ADME
Settings: read-out: Stability
Examples of compounds with documented remaining at 2 h follow.
Lab book: enter the figure in %, no units written.

input_smiles=CNC(=O)[C@@]12C[C@@H]1[C@@H](n1cnc3c(NC(C4CC4)C4CC4)nc(Cl)nc31)[C@H](O)[C@@H]2O measured_metric="remaining at 2 h" experimental_value=50

Okay, now this compound:
Asked: // lookup remaining at 2 h for `COC(=O)[C@@]12C[C@@H]1[C@@H](n1cnc3c(NC(C4CC4)C4CC4)nc(Cl)nc31)[C@H](O)[C@@H]2O`
Given back: 50

###

Examples of compounds with documented inhibition follow.
Target: 5-hydroxytryptamine receptor 2A (Homo sapiens)
Sequence (P28223 whole entry): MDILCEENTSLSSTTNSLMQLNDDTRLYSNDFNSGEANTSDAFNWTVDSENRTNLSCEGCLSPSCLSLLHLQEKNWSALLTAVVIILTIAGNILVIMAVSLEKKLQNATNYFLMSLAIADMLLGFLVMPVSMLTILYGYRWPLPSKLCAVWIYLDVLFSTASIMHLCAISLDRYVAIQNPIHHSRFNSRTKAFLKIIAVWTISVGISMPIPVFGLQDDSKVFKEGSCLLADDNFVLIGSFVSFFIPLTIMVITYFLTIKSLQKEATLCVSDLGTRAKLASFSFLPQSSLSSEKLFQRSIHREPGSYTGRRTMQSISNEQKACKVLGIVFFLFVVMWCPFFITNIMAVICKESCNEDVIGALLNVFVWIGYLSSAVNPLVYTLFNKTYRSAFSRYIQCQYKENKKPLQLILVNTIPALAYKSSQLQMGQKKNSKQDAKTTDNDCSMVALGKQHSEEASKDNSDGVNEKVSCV
Test: Displacement of [3H]ketanserin from human 5-HT2A receptor expressed in HEK-T cell membranes at 10 uM incubated for 90 mins under dark condition by microbeta scintillation counting method relative to control

input_smiles=CC(C)[C@H](Nc1nc(Cl)nc2c1ncn2[C@H]1[C@H](O)[C@H](O)[C@]2(CO)C[C@H]12)C1CC1 experimental_value="< 10%"

Asked: // lookup inhibition for `Nc1nc(Cl)nc2c1ncn2[C@@H]1O[C@H](CO)[C@@H](O)[C@H]1O`
Given back: 46%

Asked: // lookup inhibition for `CNC(=O)[C@@]12C[C@@H]1[C@@H](n1cnc3c(N(C)C)nc(C#Cc4ccc(Cl)s4)nc31)[C@H](O)[C@@H]2O`
Given back: 27%

###

Biological target: Translocator protein (Homo sapiens, UniProt P30536)
Sequence (P30536 whole entry): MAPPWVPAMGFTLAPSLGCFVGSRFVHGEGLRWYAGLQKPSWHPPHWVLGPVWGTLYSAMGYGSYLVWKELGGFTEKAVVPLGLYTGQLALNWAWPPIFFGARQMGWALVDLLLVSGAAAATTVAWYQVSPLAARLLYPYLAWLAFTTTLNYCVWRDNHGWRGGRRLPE
Measured metric: Ki (µM)
Lab book: enter the figure in µM, no units written.

Asked: Query the reported Ki for Translocator protein (Homo sapiens, UniProt P30536); item: `CCCOC(=O)[C@@]12C[C@@H]1[C@@H](n1cnc3c(NC(C4CC4)C4CC4)nc(Cl)nc31)[C@H](O)[C@@H]2O`
Given back: 2.2

###

Examples of compounds with documented log10(Ki) follow.
Molecular target: 5-hydroxytryptamine receptor 2C (Homo sapiens, UniProt P28335)
Sequence (P28335 whole entry): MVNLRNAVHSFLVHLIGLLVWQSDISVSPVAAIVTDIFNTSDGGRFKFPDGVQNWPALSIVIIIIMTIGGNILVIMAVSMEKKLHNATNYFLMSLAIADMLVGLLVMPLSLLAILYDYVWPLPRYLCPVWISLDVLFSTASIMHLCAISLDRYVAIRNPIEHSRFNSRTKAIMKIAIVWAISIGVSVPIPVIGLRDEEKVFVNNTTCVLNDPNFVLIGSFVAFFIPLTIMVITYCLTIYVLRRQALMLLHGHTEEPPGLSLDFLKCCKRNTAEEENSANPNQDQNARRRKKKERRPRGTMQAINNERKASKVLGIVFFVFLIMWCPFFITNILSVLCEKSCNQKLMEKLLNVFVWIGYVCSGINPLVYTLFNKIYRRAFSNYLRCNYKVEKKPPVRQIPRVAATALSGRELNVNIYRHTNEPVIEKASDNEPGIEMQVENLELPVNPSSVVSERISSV
Assay: Displacement of [3H]mesulergine from human 5-HT2CR expressed in Flp-In HEK cell membranes incubated for 90 mins under dark condition by microbeta scintillation counting method
Set-up: species or system HEK293
Short version: log10 scale, Ki, nM.

Study these solved cases before continuing.
input_smiles=CNC(=O)[C@H]1O[C@@H](n2cnc3c(NCc4cccc(I)c4)nc(Cl)nc32)[C@H](O)[C@@H]1O measured_metric=log10(Ki) experimental_value=4.00
input_smiles=CCCOC(=O)[C@@]12C[C@@H]1[C@@H](n1cnc3c(NC(C4CC4)C4CC4)nc(Cl)nc31)[C@H](O)[C@@H]2O measured_metric=log10(Ki) experimental_value=2.31
input_smiles=CN(C)c1nc(Cl)nc2c1ncn2[C@H]1[C@H](O)[C@H](O)[C@]2(C(=O)O)C[C@H]12 measured_metric=log10(Ki) experimental_value=3.90

Asked: // lookup log10(Ki) for `CC[C@H](Nc1nc(Cl)nc2c1ncn2[C@H]1[C@H](O)[C@H](O)[C@]2(CO)C[C@H]12)C1CC1`
Given back: 2.40

Asked: // lookup log10(Ki) for `O=C(O)[C@@]12C[C@@H]1[C@@H](n1cnc3c(NC(C4CC4)C4CC4)nc(Cl)nc31)[C@H](O)[C@@H]2O`
Given back: 3.41

Asked: // lookup log10(Ki) for `CCC(CC)Nc1nc(Cl)nc2c1ncn2[C@H]1[C@H](O)[C@H](O)[C@]2(CO)C[C@H]12`
Given back: 2.85

Asked: // lookup log10(Ki) for `O[C@@H]1[C@H](O)[C@@H]2C[C@@H]2[C@H]1n1cnc2c(NCc3cccc(Cl)c3)nc(Cl)nc21`
Given back: 3.61

###

Biological target: Adenosine receptor A2a (Homo sapiens, UniProt P29274)
Sequence (P29274 whole entry): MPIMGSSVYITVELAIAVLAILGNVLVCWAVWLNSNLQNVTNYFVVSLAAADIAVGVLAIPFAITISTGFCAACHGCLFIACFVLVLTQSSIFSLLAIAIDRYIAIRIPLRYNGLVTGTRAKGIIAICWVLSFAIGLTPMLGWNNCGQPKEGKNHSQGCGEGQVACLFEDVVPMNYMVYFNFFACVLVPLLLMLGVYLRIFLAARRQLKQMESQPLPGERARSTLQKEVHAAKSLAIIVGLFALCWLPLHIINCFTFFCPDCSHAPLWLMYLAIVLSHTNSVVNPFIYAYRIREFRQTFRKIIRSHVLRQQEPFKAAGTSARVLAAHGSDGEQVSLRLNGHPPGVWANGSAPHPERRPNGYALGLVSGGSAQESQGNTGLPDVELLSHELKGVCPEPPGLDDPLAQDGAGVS
Experiment: Displacement of [3 H]2-[p-(2-carboxyethyl)phenyl-ethylamino]-5'-N-ethylcarboxamidoadenosine from recombinant human adenosine receptor A2A expressed in HEK293 cell membranes after 60 mins by liquid scintillation counting method
Measured metric: pKi
Note on units: pKi is unitless, being -log10 of a concentration expressed in mol/L.

input_smiles=CC[C@H](Nc1nc(Cl)nc2c1ncn2[C@H]1[C@H](O)[C@H](O)[C@]2(CO)C[C@H]12)C1CC1 target_under_test="Adenosine receptor A2a (Homo sapiens, UniProt P29274)" measured_metric=pKi experimental_value=5.53
input_smiles=CC[C@@H](Nc1nc(Cl)nc2c1ncn2[C@H]1[C@H](O)[C@H](O)[C@]2(CO)C[C@H]12)C1CC1 target_under_test="Adenosine receptor A2a (Homo sapiens, UniProt P29274)" measured_metric=pKi experimental_value=5.73
input_smiles=CNC(=O)[C@@]12C[C@@H]1[C@@H](n1cnc3c(NC(C4CC4)C4CC4)nc(Cl)nc31)[C@H](O)[C@@H]2O target_under_test="Adenosine receptor A2a (Homo sapiens, UniProt P29274)" measured_metric=pKi experimental_value=5.36
input_smiles=OC[C@@]12C[C@@H]1[C@@H](n1cnc3c(N[C@@H](C4CCC4)C4CC4)nc(Cl)nc31)[C@H](O)[C@@H]2O target_under_test="Adenosine receptor A2a (Homo sapiens, UniProt P29274)" measured_metric=pKi experimental_value=5.40

Asked: // lookup pKi for `OC[C@@]12C[C@@H]1[C@@H](n1cnc3c(NC(C4CC4)C4CC4)nc(Cl)nc31)[C@H](O)[C@@H]2O`
Given back: 5.66

Asked: // lookup pKi for `CCC(CC)Nc1nc(Cl)nc2c1ncn2[C@H]1[C@H](O)[C@H](O)[C@]2(CO)C[C@H]12`
Given back: 5.76

Asked: // lookup pKi for `OC[C@@]12C[C@@H]1[C@@H](n1cnc3c(N[C@H](C4CCC4)C4CC4)nc(Cl)nc31)[C@H](O)[C@@H]2O`
Given back: 5.57

###

Target: Cytochrome P450 2C9 (Homo sapiens, UniProt P11712)
Sequence (P11712 whole entry): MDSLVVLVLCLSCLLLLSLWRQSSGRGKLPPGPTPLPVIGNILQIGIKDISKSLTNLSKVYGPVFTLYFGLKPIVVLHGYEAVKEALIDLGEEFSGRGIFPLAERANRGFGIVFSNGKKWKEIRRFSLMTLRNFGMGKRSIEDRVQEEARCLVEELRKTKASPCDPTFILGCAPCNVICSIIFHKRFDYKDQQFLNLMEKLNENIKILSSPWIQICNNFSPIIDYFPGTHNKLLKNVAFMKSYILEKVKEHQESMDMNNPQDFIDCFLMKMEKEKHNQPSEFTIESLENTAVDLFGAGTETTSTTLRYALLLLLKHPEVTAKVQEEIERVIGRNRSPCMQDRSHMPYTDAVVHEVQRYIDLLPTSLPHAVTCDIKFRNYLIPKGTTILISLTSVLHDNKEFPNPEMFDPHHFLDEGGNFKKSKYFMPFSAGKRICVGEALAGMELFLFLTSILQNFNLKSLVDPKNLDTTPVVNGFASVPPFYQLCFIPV
Measured metric: pIC50
Note on units: pIC50 is unitless, being -log10 of a concentration expressed in mol/L.

Asked: Query the reported pIC50 for Cytochrome P450 2C9 (Homo sapiens, UniProt P11712); item: `COC(=O)[C@@]12C[C@@H]1[C@@H](n1cnc3c(NC(C4CC4)C4CC4)nc(Cl)nc31)[C@H](O)[C@@H]2O`
Given back: 4.70

###

Biological target: UniProtKB Q01959
Sequence (Q01959 whole entry): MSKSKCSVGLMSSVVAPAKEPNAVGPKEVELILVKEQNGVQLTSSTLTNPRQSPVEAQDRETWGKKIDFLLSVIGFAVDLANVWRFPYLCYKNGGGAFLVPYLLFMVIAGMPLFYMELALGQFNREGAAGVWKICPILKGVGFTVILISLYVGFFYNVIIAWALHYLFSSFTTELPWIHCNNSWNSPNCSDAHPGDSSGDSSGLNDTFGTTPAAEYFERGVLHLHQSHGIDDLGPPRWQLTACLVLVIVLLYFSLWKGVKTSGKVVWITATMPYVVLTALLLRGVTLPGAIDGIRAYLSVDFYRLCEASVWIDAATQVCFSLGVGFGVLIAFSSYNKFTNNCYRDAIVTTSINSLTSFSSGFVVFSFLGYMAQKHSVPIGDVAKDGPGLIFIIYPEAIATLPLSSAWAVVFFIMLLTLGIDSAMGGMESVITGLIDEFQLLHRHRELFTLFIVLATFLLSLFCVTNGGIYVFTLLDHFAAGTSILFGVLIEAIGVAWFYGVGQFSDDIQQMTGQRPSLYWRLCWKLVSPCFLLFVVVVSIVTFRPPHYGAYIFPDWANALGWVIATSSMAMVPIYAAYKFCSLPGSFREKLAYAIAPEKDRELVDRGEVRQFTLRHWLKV
Experiment: Inhibition of human dopamine transporter expressed in HEK293 cells assessed as inhibition of dopamine uptake measured after 30 mins by fluorescence analysis
Measured metric: pKi
Note on units: pKi is unitless, being -log10 of a concentration expressed in mol/L.

Asked: Query the reported pKi for UniProtKB Q01959; item: `OC[C@@]12C[C@@H]1[C@@H](n1cnc3c(NC(C4CC4)C4CC4)nc(Cl)nc31)[C@H](O)[C@@H]2O`
Given back: 5.32

###

Examples of compounds with documented inhibition follow.
Biological target: 5-hydroxytryptamine receptor 1A (Homo sapiens)
Sequence (whole entry): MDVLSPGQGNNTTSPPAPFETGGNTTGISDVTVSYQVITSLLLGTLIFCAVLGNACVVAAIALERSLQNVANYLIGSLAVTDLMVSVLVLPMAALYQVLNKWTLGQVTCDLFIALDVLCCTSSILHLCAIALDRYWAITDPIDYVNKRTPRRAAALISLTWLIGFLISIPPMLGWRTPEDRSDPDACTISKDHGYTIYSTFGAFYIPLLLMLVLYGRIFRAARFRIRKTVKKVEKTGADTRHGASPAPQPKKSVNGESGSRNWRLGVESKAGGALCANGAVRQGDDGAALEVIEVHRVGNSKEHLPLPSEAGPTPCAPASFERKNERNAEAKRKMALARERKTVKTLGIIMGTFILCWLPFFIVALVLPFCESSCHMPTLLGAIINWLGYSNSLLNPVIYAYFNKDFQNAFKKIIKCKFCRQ
Test: Displacement of [3H]WAY100635 from human 5-HT1AR expressed in CHO cell membranes at 10 uM incubated for 90 mins under dark condition by microbeta scintillation counting method relative to control

input_smiles=Nc1nc(Cl)nc2c1ncn2[C@H]1[C@H](O)[C@H](O)[C@]2(CO)C[C@H]12 measured_metric=inhibition experimental_value="< 50%"
input_smiles=COC(=O)[C@@]12C[C@@H]1[C@@H](n1cnc3c(NC(C4CC4)C4CC4)nc(Cl)nc31)[C@H](O)[C@@H]2O measured_metric=inhibition experimental_value="< 50%"
input_smiles=OC[C@@]12C[C@@H]1[C@@H](n1cnc3c(N[C@H](C4CCC4)C4CC4)nc(Cl)nc31)[C@H](O)[C@@H]2O measured_metric=inhibition experimental_value="< 50%"

Asked: // lookup inhibition for `Clc1cccc(CNc2nc(Cl)nc3[nH]cnc23)c1`
Given back: < 50%

Asked: // lookup inhibition for `O[C@@H]1[C@H](O)[C@@H]2C[C@@H]2[C@H]1n1cnc2c(NCc3cccc(Cl)c3)nc(Cl)nc21`
Given back: < 50%

Asked: // lookup inhibition for `CNC(=O)[C@@]12C[C@@H]1[C@@H](n1cnc3c(N(C)C)nc(Cl)nc31)[C@H](O)[C@@H]2O`
Given back: < 50%

Asked: // lookup inhibition for `CC(=O)NCCNC(=O)[C@@]12C[C@@H]1[C@@H](n1cnc3c(NC(C4CC4)C4CC4)nc(Cl)nc31)[C@H](O)[C@@H]2O`
Given back: < 50%

Asked: // lookup inhibition for `O=C(O)[C@@]12C[C@@H]1[C@@H](n1cnc3c(NC(C4CC4)C4CC4)nc(Cl)nc31)[C@H](O)[C@@H]2O`
Given back: < 50%
